System: 485176-168-R4-J1-PDC complex spheroid growth;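 note: spheroids exposed to compounds for seven days before readout; luminescence viability expressed relative to DMSO vehicle wells set as 100%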
test_method_notes: Anticancer human tumor 485176-168-R4-J1-PDC patient-derived pancreatic adenocarcinoma cell line growth inhibition [RAS]
run_parameters: second compound 0.003 µM; first compound 0.1 µM; stronger effect = lower value
quantity_name: viability, T/C (%)
Give just the number in %; leave the unit off.

{"columns": ["compound", "viability, T/C, %"],
 "data": [
  ["C=CC(=O)Nc1cc(Nc2nccc(-c3cn(C)c4ccccc34)n2)c(OC)cc1N(C)CCN(C)C + CCn1c(-c2cc(N3CCN(C)CC3)cnc2C(C)OC)c2c3cc(ccc31)-c1csc(n1)CC(NC(=O)C1CC1C)C(=O)N1CCCC(N1)C(=O)OCC(C)(C)C2", 76]
]}

Consider the compound CC1(O)CCCC1n1c(=O)c(C(F)F)cc2cnc(NC3CCN(S(C)(=O)=O)CC3)nc21 (centres undefined) + CCn1c(-c2cccnc2C(C)OC)c2c3cc(ccc31)N1CCOC(CC(NC(=O)C(C(C)C)N(C)C(=O)C3(F)CCN(C(=O)C#CC(C)(C)N(C)C)CC3)C(=O)N3CCCC(N3)C(=O)OCC(C)(C)C2)C1 and give its measured viability, T/C.
92.7

Consider the compound C=CC(=O)N1CCN(c2nc(OCC3CCCN3C)nc3c(F)c(-c4nc(N)cc(C)c4C(F)(F)F)c(Cl)cc23)C(C)C1 (centres undefined) + CCn1c(-c2cc(N3CCN(C)CC3)cnc2C(C)OC)c2c3cc(ccc31)-c1csc(n1)CC(NC(=O)C1CC1C)C(=O)N1CCCC(N1)C(=O)OCC(C)(C)C2 and give its measured viability, T/C.
103

Consider the compound CCN1CCN(Cc2ccc(Nc3ncc(F)c(-c4cc(F)c5nc(C)n(C(C)C)c5c4)n3)nc2)CC1 + CCn1c(-c2cc(N3CCN(C)CC3)cnc2C(C)OC)c2c3cc(ccc31)-c1csc(n1)CC(NC(=O)C1CC1C)C(=O)N1CCCC(N1)C(=O)OCC(C)(C)C2 and give its measured viability, T/C.
66.9

Consider the compound CC(=O)OC12COC1CC(O)C1(C)C(=O)C(O)C3=C(C)C(OC(=O)C(O)C(NC(=O)OC(C)(C)C)c4ccccc4)CC(O)(C(OC(=O)c4ccccc4)C21)C3(C)C (centres undefined) + CCn1c(-c2cccnc2C(C)OC)c2c3cc(ccc31)N1CCOC(CC(NC(=O)C(C(C)C)N(C)C(=O)C3(F)CCN(C(=O)C#CC(C)(C)N(C)C)CC3)C(=O)N3CCCC(N3)C(=O)OCC(C)(C)C2)C1 and give its measured viability, T/C.
12.7

Consider the compound Cc1nc(N2CCC3(CC2)COC(C)C3N)c(CO)nc1Sc1ccnc(N)c1Cl (centres undefined) + CCn1c(-c2cc(N3CCN(C)CC3)cnc2C(C)OC)c2c3cc(ccc31)-c1csc(n1)CC(NC(=O)C1CC1C)C(=O)N1CCCC(N1)C(=O)OCC(C)(C)C2 and give its measured viability, T/C.
68.7

Consider the compound O=C(c1ccc(F)c(F)c1Nc1ccc(I)cc1F)N1CC(O)([C@@H]2CCCCN2)C1 + CCn1c(-c2cc(N3CCN(C)CC3)cnc2C(C)OC)c2c3cc(ccc31)-c1csc(n1)CC(NC(=O)C1CC1C)C(=O)N1CCCC(N1)C(=O)OCC(C)(C)C2 and give its measured viability, T/C.
48.5

Consider the compound CC(Nc1ccc2c(c1)OCCn1cc(N3C(=O)OCC3C(F)F)nc1-2)C(N)=O (centres undefined) + CCn1c(-c2cc(N3CCN(C)CC3)cnc2C(C)OC)c2c3cc(ccc31)-c1csc(n1)CC(NC(=O)C1CC1C)C(=O)N1CCCC(N1)C(=O)OCC(C)(C)C2 and give its measured viability, T/C.
74.8

Consider the compound CCC(CC)c1cc(NC2CCC(N)C2)n2nccc2n1 (centres undefined) + CCn1c(-c2cc(N3CCN(C)CC3)cnc2C(C)OC)c2c3cc(ccc31)-c1csc(n1)CC(NC(=O)C1CC1C)C(=O)N1CCCC(N1)C(=O)OCC(C)(C)C2 and give its measured viability, T/C.
94.3
